- assay system: T1, Murine B7-H4 ECD-Flag-His10 (monomeric) (mouse, UniProt Q7TSP5 25-257)
- T1 construct: extracellular domain; also called FlagHis10 murine B7-H4
- T1 sequence (looked up): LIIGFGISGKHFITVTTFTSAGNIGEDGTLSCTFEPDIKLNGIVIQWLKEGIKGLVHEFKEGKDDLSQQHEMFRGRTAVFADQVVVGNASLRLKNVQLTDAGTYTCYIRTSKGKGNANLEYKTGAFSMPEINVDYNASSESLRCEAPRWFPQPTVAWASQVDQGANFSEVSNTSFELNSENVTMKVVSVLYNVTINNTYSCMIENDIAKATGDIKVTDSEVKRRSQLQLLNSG
- test details: Octet BLI, hIgG1-TM on Protein G (n = 4-7)
Property: koff; scope: individual binders
quantity measured: koff (s⁻¹)

| binder | value reported |
| --- | --- |
| ZY0EPQ-E02 human IgG1-TM (antibody, V domains shown) VH: QVQLQQWGAGLLKPSETLSLTCAVYGGSFSGYYWNWIRQPPGKGLEWIGEINHSGSTNYNPSLKSRVTILVDTSKNQFSLKLSSVTAADTAVYYCARNLYNWNLDSWGQGTLVTVSS VL: DIQMTQSPSSLSASVGDRVTITCRASQGIRNDLGWYQQKPGRAPKRLIYVASSLQSGVPSRFSGSGSGTEFTLTISSLQPEDFATYYCLQHNSYPRTFGQGTKVEIK | 0.0304 |
| ZY0EQD-E02 human IgG1-TM (antibody, V domains shown) VH: QVQLQQWGAGLLKPSETLSLTCAVYGGSFSGYYWNWIRQPPGKGLEWIGEINHSGSTSYNPSLKSRVTISVDTSKNQFSLKLSSVTAADTAVYYCARVLYNWNVDSWGQGTLVTVSS VL: DIQMTQSPSSLSASVGDRVTITCRASQDIRNDVGWYQQKPGKAPKRLIYAASRLQSGVPSRFSGSGSGTEFTLTISSLQPEDFATYYCLQHNSYPRTFGQGTKVEIK | 0.126 |
